test system: THP-1; assay: Cytotoxicity against human THP1 cells expressing p53 mutant after 48 hrs by SRB assay; assay type: functional, cell-based; conditions: THP-1, 48 h
The molecules listed here are annotated with their IC50.
resultType: IC50

>>> result("CC[C@@]1(O)C(=O)OCc2c1cc1n(c2=O)Cc2cc3c(CN(C)C)c(O)ccc3nc2-1 [TOPOTECAN]")
"1.5 µM"
>>> result("CCn1cc(-c2nc3ccccc3[nH]2)c(=O)c2cc(F)c(N3CCNCC3)cc21")
"> 10 µM"
>>> result("CCn1cc(-c2nc3ccc([N+](=O)[O-])cc3[nH]2)c(=O)c2cc(F)c(N3CCNC(C)C3)c(F)c21 (centres undefined)")
"7.8 µM"
>>> result("CCn1cc(-c2nc3ccc(N)cc3[nH]2)c(=O)c2cc(F)c(N3CCNCC3)cc21")
"10 µM"
>>> result("CCn1cc(-c2nc3ccc([N+](=O)[O-])cc3o2)c(=O)c2cc(F)c(N3CCNC(C)C3)c(F)c21 (centres undefined)")
"3.5 µM"
>>> result("CCn1cc(-c2nc3ccc([N+](=O)[O-])cc3s2)c(=O)c2cc(F)c(N3CCN(C)CC3)cc21")
"> 10 µM"
>>> result("CCn1cc(-c2nc3ccc([N+](=O)[O-])cc3s2)c(=O)c2cc(F)c(N3CCNC(C)C3)c(F)c21 (centres undefined)")
"> 10 µM"
>>> result("CCn1cc(-c2nc3ccc(N)cc3[nH]2)c(=O)c2cc(F)c(N3CCNCC3)nc21")
"8.2 µM"
>>> result("CCn1cc(-c2nc3ccc(Cl)cc3[nH]2)c(=O)c2cc(F)c(N3CCNCC3)cc21")
"2.8 µM"

====

Listed here are compounds together with their documented log10(GI50).
test system: HeLa; experiment: Cytotoxicity against p53-deficient human HeLa cells after 48 hrs by SRB assay; type: functional, cell-based
resultType: log10(GI50) (log10 of the value in nM)

>>> readoutnumber("CCn1cc(-c2nc3ccc([N+](=O)[O-])cc3[nH]2)c(=O)c2cc(F)c(N3CCNC(C)C3)c(F)c21 (centres undefined)")
3.15
>>> readoutnumber("CCn1cc(-c2nc3ccc(Cl)cc3[nH]2)c(=O)c2cc(F)c(N3CCNCC3)cc21")
3.08
>>> readoutnumber("CC[C@@]1(O)C(=O)OCc2c1cc1n(c2=O)Cc2cc3ccccc3nc2-1")
1.60
>>> readoutnumber("CCn1cc(-c2nc3ccc([N+](=O)[O-])cc3o2)c(=O)c2cc(F)c(N3CCNC(C)C3)c(F)c21 (centres undefined)")
3.04
>>> readoutnumber("CCn1cc(-c2nc3ccc([N+](=O)[O-])cc3s2)c(=O)c2cc(F)c(N3CCNC(C)C3)c(F)c21 (centres undefined)")
3.23

====

tested on: MCF7; assay: Cytotoxicity against estrogen receptor-positive human MCF7 cells expressing wild type p53 after 48 hrs by SRB assay; type: functional, cell-based; conditions: MCF7, 48 h
resultType: GI50 (µM)

>>> readoutnumber("CCn1cc(-c2nc3ccc([N+](=O)[O-])cc3o2)c(=O)c2cc(F)c(N3CCNC(C)C3)c(F)c21 (centres undefined)")
3
>>> readoutnumber("CC[C@@]1(O)C(=O)OCc2c1cc1n(c2=O)Cc2cc3c(CN(C)C)c(O)ccc3nc2-1")
0.8
>>> readoutnumber("CCn1cc(-c2nc3ccc(Cl)cc3[nH]2)c(=O)c2cc(F)c(N3CCNCC3)cc21")
4.2
>>> readoutnumber("CCn1cc(-c2nc3ccccc3[nH]2)c(=O)c2cc(F)c(N3CCNCC3)nc21")
8.3
>>> readoutnumber("CCn1cc(-c2nc3ccc([N+](=O)[O-])cc3[nH]2)c(=O)c2cc(F)c(N3CCNC(C)C3)c(F)c21 (centres undefined)")
2.6
>>> readoutnumber("CC[C@@]1(O)C(=O)OCc2c1cc1n(c2=O)Cc2cc3ccccc3nc2-1")
0.01

====

Overview of recorded IC50 for various compounds
test system: THP-1; assay: Cytotoxicity against human THP1 cells expressing p53 mutant after 48 hrs by SRB assay; format: functional, cell-based; conditions: THP-1, 48 h
resultType: IC50

>>> result("CC[C@@]1(O)C(=O)OCc2c1cc1n(c2=O)Cc2cc3ccccc3nc2-1")
"0.6 µM"
>>> result("CCn1cc(-c2nc3ccccc3[nH]2)c(=O)c2cc(F)c(N3CCNCC3)nc21")
"> 10 µM"
>>> result("C[C@H]1COc2c(N3CCN(C)CC3)c(F)cc3c(=O)c(-c4nc5ccc([N+](=O)[O-])cc5s4)cn1c23")
"> 10 µM"
>>> result("CCn1cc(-c2nc3ccc([N+](=O)[O-])cc3o2)c(=O)c2cc(F)c(N3CCNCC3)nc21")
"> 10 µM"
>>> result("CCn1cc(-c2nc3ccc(N)cc3[nH]2)c(=O)c2cc(F)c(N3CCN(C)CC3)cc21")
"> 10 µM"

====

test system: HT-29; experiment: Cytotoxicity against human HT-29 cells expressing p53 mutant after 48 hrs by SRB assay; assay type: functional, cell-based; conditions: HT-29, 48 h
Could you please mark 1 (yes) for values of IC50 below 6 µM and 0 (no) for values at or above it?

>>> qualitativelabel("CC[C@@]1(O)C(=O)OCc2c1cc1n(c2=O)Cc2cc3c(CN(C)C)c(O)ccc3nc2-1 [TOPOTECAN]")
"1 (yes)"
>>> qualitativelabel("CCn1cc(-c2nc3ccc([N+](=O)[O-])cc3o2)c(=O)c2cc(F)c(N3CCNCC3)nc21")
"0 (no)"
>>> qualitativelabel("CCn1cc(-c2nc3ccc(Cl)cc3[nH]2)c(=O)c2cc(F)c(N3CCNCC3)cc21")
"1 (yes)"
>>> qualitativelabel("CCn1cc(-c2nc3ccc(N)cc3[nH]2)c(=O)c2cc(F)c(N3CCNCC3)cc21")
"0 (no)"
>>> qualitativelabel("CCn1cc(-c2nc3ccc([N+](=O)[O-])cc3s2)c(=O)c2cc(F)c(N3CCNC(C)C3)c(F)c21 (centres undefined)")
"1 (yes)"
>>> qualitativelabel("CCn1cc(-c2nc3ccc([N+](=O)[O-])cc3[nH]2)c(=O)c2cc(F)c(N3CCNC(C)C3)c(F)c21 (centres undefined)")
"0 (no)"
>>> qualitativelabel("CCn1cc(-c2nc3ccc(N)cc3[nH]2)c(=O)c2cc(F)c(N3CCN(C)CC3)cc21")
"0 (no)"
>>> qualitativelabel("CCn1cc(-c2nc3ccc([N+](=O)[O-])cc3s2)c(=O)c2cc(F)c(N3CCN(C)CC3)cc21")
"0 (no)"
>>> qualitativelabel("CCn1cc(-c2nc3ccc([N+](=O)[O-])cc3o2)c(=O)c2cc(F)c(N3CCNC(C)C3)c(F)c21 (centres undefined)")
"1 (yes)"
>>> qualitativelabel("C[C@H]1COc2c(N3CCN(C)CC3)c(F)cc3c(=O)c(-c4nc5ccc([N+](=O)[O-])cc5s4)cn1c23")
"0 (no)"
>>> qualitativelabel("CCn1cc(-c2nc3ccccc3[nH]2)c(=O)c2cc(F)c(N3CCNCC3)nc21")
"0 (no)"
>>> qualitativelabel("CCn1cc(-c2nc3ccccc3[nH]2)c(=O)c2cc(F)c(N3CCNCC3)cc21")
"0 (no)"
>>> qualitativelabel("CCn1cc(-c2nc3ccc(N)cc3[nH]2)c(=O)c2cc(F)c(N3CCNCC3)nc21")
"0 (no)"
>>> qualitativelabel("CC[C@@]1(O)C(=O)OCc2c1cc1n(c2=O)Cc2cc3ccccc3nc2-1 [CAMPTOTHECIN]")
"1 (yes)"

====

tested on: HeLa; experiment: Cytotoxicity against p53-deficient human HeLa cells after 48 hrs by SRB assay; assay type: functional, cell-based
resultType: GI50 (µM)

>>> readoutnumber("CC[C@@]1(O)C(=O)OCc2c1cc1n(c2=O)Cc2cc3c(CN(C)C)c(O)ccc3nc2-1")
0.08
>>> readoutnumber("CCn1cc(-c2nc3ccccc3[nH]2)c(=O)c2cc(F)c(N3CCNCC3)nc21")
6.4

====

system: PC-3; test: Cytotoxicity against p53-deficient human PC3 cells after 48 hrs by SRB assay; type: functional, cell-based; conditions: PC-3, 48 h
Parameter IC50: see the listing below.
resultType: IC50 (µM)

>>> readoutnumber("CC[C@@]1(O)C(=O)OCc2c1cc1n(c2=O)Cc2cc3ccccc3nc2-1 [CAMPTOTHECIN]")
1.4
>>> readoutnumber("CCn1cc(-c2nc3ccc([N+](=O)[O-])cc3o2)c(=O)c2cc(F)c(N3CCNC(C)C3)c(F)c21 (centres undefined)")
4.2
>>> readoutnumber("CCn1cc(-c2nc3ccc([N+](=O)[O-])cc3[nH]2)c(=O)c2cc(F)c(N3CCNC(C)C3)c(F)c21 (centres undefined)")
9.6
>>> readoutnumber("CCn1cc(-c2nc3ccc([N+](=O)[O-])cc3o2)c(=O)c2cc(F)c(N3CCNCC3)nc21")
9.8
>>> readoutnumber("CC[C@@]1(O)C(=O)OCc2c1cc1n(c2=O)Cc2cc3c(CN(C)C)c(O)ccc3nc2-1 [TOPOTECAN]")
2
>>> readoutnumber("C[C@H]1COc2c(N3CCN(C)CC3)c(F)cc3c(=O)c(-c4nc5ccc([N+](=O)[O-])cc5s4)cn1c23")
9.9
>>> readoutnumber("CCn1cc(-c2nc3ccc([N+](=O)[O-])cc3s2)c(=O)c2cc(F)c(N3CCN(C)CC3)cc21")
7.5
>>> readoutnumber("CCn1cc(-c2nc3ccc([N+](=O)[O-])cc3s2)c(=O)c2cc(F)c(N3CCNC(C)C3)c(F)c21 (centres undefined)")
10
>>> readoutnumber("CCn1cc(-c2nc3ccc(Cl)cc3[nH]2)c(=O)c2cc(F)c(N3CCNCC3)cc21")
4.8

The measured values listed here are drawn from ChEMBL document CHEMBL1153527.
